- assayed_target: Serine protease 1 (Homo sapiens, UniProt P07477)
- Sequence (P07477 whole entry): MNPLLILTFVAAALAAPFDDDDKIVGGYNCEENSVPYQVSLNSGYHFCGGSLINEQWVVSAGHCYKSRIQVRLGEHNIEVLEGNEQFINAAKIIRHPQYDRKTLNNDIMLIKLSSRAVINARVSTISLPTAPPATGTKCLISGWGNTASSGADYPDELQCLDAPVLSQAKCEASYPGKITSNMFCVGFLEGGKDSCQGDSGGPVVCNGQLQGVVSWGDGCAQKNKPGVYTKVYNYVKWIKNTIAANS
- assay_comment: Selectivity interaction (Serine protease panel) EUB0000735a PRSS1
pIC50: −log10 of the molar value.
endpoint_label: pIC50

The value of pIC50 measured for the compound CC(=O)C1=C(C)N(c2cccc(C(F)(F)F)c2)C(=O)N[C@@H]1c1ccc(C#N)nc1 turned out to be < 4.52

###

- assayed_target: Leukocyte tyrosine kinase receptor (Homo sapiens, UniProt P29376)
- Sequence (P29376 whole entry): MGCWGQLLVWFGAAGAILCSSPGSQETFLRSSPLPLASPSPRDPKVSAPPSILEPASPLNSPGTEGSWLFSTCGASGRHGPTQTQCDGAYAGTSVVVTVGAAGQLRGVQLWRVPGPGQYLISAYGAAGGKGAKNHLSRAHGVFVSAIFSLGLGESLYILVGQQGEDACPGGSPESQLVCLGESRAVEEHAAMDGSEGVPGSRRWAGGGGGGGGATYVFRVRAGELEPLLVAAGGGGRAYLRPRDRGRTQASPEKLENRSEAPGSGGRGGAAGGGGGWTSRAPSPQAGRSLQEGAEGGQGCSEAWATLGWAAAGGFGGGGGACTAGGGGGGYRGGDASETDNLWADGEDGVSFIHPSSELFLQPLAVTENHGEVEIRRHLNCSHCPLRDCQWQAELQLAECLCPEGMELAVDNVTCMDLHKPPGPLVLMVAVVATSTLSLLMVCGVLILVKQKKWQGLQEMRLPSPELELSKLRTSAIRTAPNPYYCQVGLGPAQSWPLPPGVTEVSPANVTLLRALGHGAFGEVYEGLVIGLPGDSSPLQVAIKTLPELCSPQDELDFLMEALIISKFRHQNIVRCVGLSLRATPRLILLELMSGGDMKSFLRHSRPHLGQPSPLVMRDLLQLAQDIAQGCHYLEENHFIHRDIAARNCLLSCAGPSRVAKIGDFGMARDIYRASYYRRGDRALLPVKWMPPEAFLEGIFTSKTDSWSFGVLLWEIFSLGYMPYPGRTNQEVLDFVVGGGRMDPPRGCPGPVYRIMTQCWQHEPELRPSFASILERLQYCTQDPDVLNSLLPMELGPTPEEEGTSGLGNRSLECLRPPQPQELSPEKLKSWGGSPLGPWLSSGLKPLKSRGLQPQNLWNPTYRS
- assay_comment: Selectivity interaction (Enzymatic assay) EUB0000609a LTK
endpoint_label: pIC50
# reply with the number alone; pIC50 is -log10 of concentration in mol/L

The value of pIC50 measured for the compound COc1cc(N2CCC(O)CC2)ccc1Nc1cc(Nc2ccccc2S(=O)(=O)C(C)C)c2cc[nH]c2n1 turned out to be 7.54
